All values here come from ChEMBL document CHEMBL1141896.

Reported values of log10 ED50 for individual entries
# subjectOfTest: Histamine H1 receptor (Mus musculus)
# assayOverview: Ex vivo effective binding dose against histamine-H1 receptor (n = 3)
endpoint: log10 ED50 (log10 of the value in mg/kg)

| smilesStructure | testValue |
| --- | --- |
| CCOCCn1cc(C2CCN(CCOc3ccccc3C=O)CC2)c2ccccc21 | 0.90 |
| CCOCCn1cc(C2CCN(Cc3cccc(C(=O)O)c3)CC2)c2ccccc21 | 1.20 |
| CCCCn1cc(C2CCN(Cc3ccc(OC)c(C(=O)O)c3)CC2)c2ccccc21 | 1.84 |
| CCOCCn1cc(C2CCN(Cc3ccc(OC)c(C(=O)O)c3)CC2)c2ccccc21 | 0.73 |
| CCOCCn1cc(C2CCN(CCOc3ccccc3C(=O)O)CC2)c2ccccc21 | 1.53 |
| COc1ccc(CN2CCC(c3cn(Cc4ccoc4)c4ccccc34)CC2)cc1C(=O)O | 1.18 |
| COc1ccc(CN2CCC(c3cn(Cc4ccc(Cl)s4)c4ccccc34)CC2)cc1C(=O)O | 1.76 |
